biological target: Fyn (UniProt P06241); assay: phosphorylation enrichment, bacterial display (enrichment ratio); higher = better substrate or ligand; peptides without Tyr show the background;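 note: 11-residue human phosphosite peptides and single-mutation variants displayed on the E. coli surface, counted by deep sequencing, each peptide's frequency after selection divided by its frequency in the unselected input library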;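 note: frequency after pTyr selection over input frequency; kinase dosed for 20-30% of maximal phosphorylation in three min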
Sequence (P06241 whole entry, looked up): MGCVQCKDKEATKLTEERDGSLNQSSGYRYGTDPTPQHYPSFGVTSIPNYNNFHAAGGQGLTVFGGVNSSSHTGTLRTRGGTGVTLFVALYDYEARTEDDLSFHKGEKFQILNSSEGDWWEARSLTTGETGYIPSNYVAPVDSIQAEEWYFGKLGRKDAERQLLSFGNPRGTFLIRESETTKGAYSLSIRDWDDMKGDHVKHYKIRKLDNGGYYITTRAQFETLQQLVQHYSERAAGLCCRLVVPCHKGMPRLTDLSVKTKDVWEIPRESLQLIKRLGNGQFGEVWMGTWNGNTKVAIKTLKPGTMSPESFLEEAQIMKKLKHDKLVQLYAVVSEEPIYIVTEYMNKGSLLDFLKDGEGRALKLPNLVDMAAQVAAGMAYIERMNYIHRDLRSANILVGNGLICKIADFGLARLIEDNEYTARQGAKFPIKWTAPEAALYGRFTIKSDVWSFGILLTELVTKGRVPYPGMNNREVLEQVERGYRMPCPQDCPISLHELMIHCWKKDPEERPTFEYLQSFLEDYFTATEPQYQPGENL

residueCodes	phosphorylation enrichment
RLLRGYDQYAY [HLA-B_Y137_H137Y]	0.518
DLDATYRPMFS [JUP_Y701_M697L_YF]	0.522
VAMELYVFGGV [GAN_Y471]	0.533
TRSFDYMEGED [FGF7_Y58_G62E_YF]	0.649
AKKIKYFEGVS [PRKDC_Y682]	0.321
DVCKNYTEAKD [ALB_Y343_A344T]	0.497
TRDVNYGWVIR [MT-CYB_Y75_I78V]	0.647
NVTGHYIPPFH [PPA2_Y59_S61P]	0.445
FEAMEYLESKQ [BTK_Y511_C506Y_YF]	0.499
IYRAAYFGVYD [SLC25A4_Y191]	5.53
HLSPEYKQNEI [GJB1_Y243_R238H]	0.594
ADCRYYAFPQM [GAMT_Y223]	2.75
DGQVNYEEFVQ [CALM1_Y139]	0.505
VECHPYFTQPK [AKR1D1_Y199]	0.559

###

system: c-Abl (mouse); test: phosphorylation enrichment, bacterial display (enrichment ratio); higher = better substrate or ligand; peptides without Tyr show the background
assayReadout: phosphorylation enrichment

residueCodes	assayReadout	numericResult
EMTRNYIIFIE [BCO2_Y294_G289E]	phosphorylation enrichment	0.572
LQTFHYHGHSM [PDHA1_Y289_R288H_YF]	phosphorylation enrichment	0.493
FLRTGYSVPFG [TGM1_Y370_YF]	phosphorylation enrichment	0.945
GASWRYRSGVS [NEU1_Y242_G243R]	phosphorylation enrichment	0.48
HNLPIYEGFAL [ACTA1_Y168_V165L_YF]	phosphorylation enrichment	14
SFLSYYTSHVQ [NEFL_Y443_P440L]	phosphorylation enrichment	0.828
ENAGYYFRISA	phosphorylation enrichment	0.764
CPYNLYAAQLS [HGD_Y40_E42A]	phosphorylation enrichment	0.857
QSLEPYTKQQL [STAT3_Y640_V637L]	phosphorylation enrichment	0.498
TTGGFYSYGGG [KRT24_Y120_A115T]	phosphorylation enrichment	0.692
WKESWYSMRKM [FGB_Y475_G472E]	phosphorylation enrichment	0.792
TCRPPYYHRNC [HGD_Y333_F329C]	phosphorylation enrichment	0.197
GDYYRSLAEVA [YWHAG_Y133_Y133S]	phosphorylation enrichment	1.82
LSIQTYSALNF [DES_Y423_P419S]	phosphorylation enrichment	1.46

###

tested on: Fer (mouse); assay: phosphorylation enrichment, bacterial display (enrichment ratio); higher = better substrate or ligand; peptides without Tyr show the background
Ranges used to classify phosphorylation enrichment: low group: < 0.5; middle group: ≥ 0.5 and < 0.7; high group: ≥ 0.7

residueCodes	labelValue
HHTNEYEFDEL [TGM1_Y134_D132N_YF]	middle group
EKIANYKEGTY [CLRN1_Y171]	middle group
AKKIKYFEGVS [PRKDC_Y682]	low group
DTCPPYVLSQG [GJB4_Y237]	middle group
LINLKYSVEEE [PCDH19_Y27]	high group
PDGREYIFVDP [PDGFRA_Y572_H570R_YF]	middle group
PDSVDYPKKGF [CTSK_Y121_R122P_YF]	high group
AGADGYDYLAP [FOXL2_Y186_G187D]	middle group
THPFLYLSLEI [MLH1_Y293]	low group
FHKALYTVRTY [PDE6C_Y266_S270T]	middle group
HNELYYEAAEH [VANGL1_Y345_E347A]	high group
QEGPEYWDGET [HLA-A_Y83_Q86G]	high group
RAFSWYQHQRA [NDST1_Y714_YF]	high group
LLNAIYLSAKR [SERPING1_Y294_W299R]	high group
KPAFSYTSSST [SIM1_Y356]	low group
TYGNLYGSRKQ [YIPF7_Y59_A54T]	high group
GPGSGYTNIMR [PKLR_Y564_R559G]	low group
KVMANYMYKAG [MAML2_Y513]	low group
AEEKEYHAEGG [EGFR_Y869]	middle group
PRAEWYRDDVL [MYOM2_Y317]	high group
MARDIYRASYY [ALK_Y1278]	low group
NDTAGYFVIGG [SEL1L3_Y399_I401V]	middle group
FIAVGYVDDTQ [HLA-A_Y51]	low group
GASWRYRSGVS [NEU1_Y242_G243R]	low group
YSNVLYRPRGA [TMIGD2_Y197]	high group
LVPPRYVRSEI [PKP2_Y194_A195V]	middle group
QTLEAYIRCNK [SPAST_Y604_W607C]	low group

###

target: EPHB2 (UniProt P29323); assay: phosphorylation enrichment, bacterial display (enrichment ratio); higher = better substrate or ligand; peptides without Tyr show the background
Sequence (P29323 whole entry, looked up): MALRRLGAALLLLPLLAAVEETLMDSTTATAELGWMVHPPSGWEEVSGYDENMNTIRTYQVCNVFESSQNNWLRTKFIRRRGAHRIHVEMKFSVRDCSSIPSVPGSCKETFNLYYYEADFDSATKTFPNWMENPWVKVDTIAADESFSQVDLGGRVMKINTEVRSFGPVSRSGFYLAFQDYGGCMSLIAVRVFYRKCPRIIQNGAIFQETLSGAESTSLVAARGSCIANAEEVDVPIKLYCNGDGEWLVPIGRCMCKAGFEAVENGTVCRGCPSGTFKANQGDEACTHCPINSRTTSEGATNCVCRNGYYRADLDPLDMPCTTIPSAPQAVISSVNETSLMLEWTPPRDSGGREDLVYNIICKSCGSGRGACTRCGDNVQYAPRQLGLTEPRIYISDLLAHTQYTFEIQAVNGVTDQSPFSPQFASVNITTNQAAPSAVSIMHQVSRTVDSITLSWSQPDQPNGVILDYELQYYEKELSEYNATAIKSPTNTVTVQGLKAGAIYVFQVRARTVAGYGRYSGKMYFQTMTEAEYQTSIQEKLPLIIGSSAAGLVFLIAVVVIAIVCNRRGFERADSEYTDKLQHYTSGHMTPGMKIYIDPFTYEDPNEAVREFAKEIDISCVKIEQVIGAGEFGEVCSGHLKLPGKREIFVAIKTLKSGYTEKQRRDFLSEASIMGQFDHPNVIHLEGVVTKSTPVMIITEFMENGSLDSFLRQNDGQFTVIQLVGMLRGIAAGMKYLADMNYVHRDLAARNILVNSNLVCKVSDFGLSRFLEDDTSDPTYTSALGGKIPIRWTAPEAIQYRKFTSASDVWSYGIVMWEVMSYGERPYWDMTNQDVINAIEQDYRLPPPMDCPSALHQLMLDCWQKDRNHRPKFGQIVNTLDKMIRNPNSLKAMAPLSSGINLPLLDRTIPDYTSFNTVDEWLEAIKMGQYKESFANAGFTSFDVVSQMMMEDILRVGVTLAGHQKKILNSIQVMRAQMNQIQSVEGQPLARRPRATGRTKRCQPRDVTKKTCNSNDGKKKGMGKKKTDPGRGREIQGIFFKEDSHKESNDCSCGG
Please use t whenever phosphorylation enrichment is not below 0.6, and f whenever it is.

residueCodes	labelValue
DALDNYVVRGV [PCCA_Y473_I475V]	f
LVSCTYQLATG [FGFR2_Y608_R612T]	t
FADIAYNYRHA [PAH_Y166_G171A]	f
MSIWPYLQKID [MFSD8_Y63]	f
IRTDAYVQAMT [RPE65_Y89_R91Q]	f
YDGKDYIALKE [HLA-A_Y147_N151K]	t
KKMEVYQSIAD [MYBPC3_Y548_L545M]	t
KSRQIYDAYIM [GRK3_Y109_R104K]	t
SVVVPYEPPEG [TP53_Y220_V225G]	f
PDNKPYIFKVF [PIK3AP1_Y553_E551K]	t
EKIANYKEGTY [CLRN1_Y171]	f
WCSNDYLGMSQ [ALAS2_Y199_R204Q]	t
YPKARYRWLVL [APTX_Y214_H215R]	f

###

test system: Fer (mouse); test: phosphorylation enrichment, bacterial display (enrichment ratio); higher = better substrate or ligand; peptides without Tyr show the background

residueCodes	phosphorylation enrichment
EITSHYRHLLR [ZBTB46_Y14]	0.571
RGSQQYRALPV [TUBB8_Y281_T285P]	0.434
DDKQPYEKKAE [HMGB1_Y144_A149E]	0.464
YNDSTYNQQLI [ZPLD1_Y198]	0.491
FMGVEYSSCDT [EPHA3_Y937_T933M]	0.64
NPSYNYEIVNQ [DYNC1H1_Y3379_R3384Q]	2.7
TQRPYYKGGGG [TYROBP_Y112]	0.419
AVRVFYRKCPH [EPHB2_Y194_R199H]	0.452
ATGGFYSYGGG [KRT24_Y120]	4.4
YRIGPYQPNVP [MATR3_Y784]	0.5
EVDGLYREAPI [MYL12B_Y143_E141G]	0.504
LIDGFYRLTAD [JAK2_Y373_YF]	0.523
WCSNDYLGMSQ [ALAS2_Y199_R204Q]	0.642
SGDDGYAKDAK [TENM4_Y1530]	0.494

###

tested on: c-Src; test: phosphorylation enrichment, bacterial display (enrichment ratio); higher = better substrate or ligand; peptides without Tyr show the background
assayReadout: phosphorylation enrichment

residueCodes	numericResult
KWRGQYDVAIE [BTK_Y425_K430E]	0.437
DALDNYVVRGV [PCCA_Y473_I475V]	0.436
MRALTYCDLHK [KCNH2_Y827_V822M]	0.37
VPLATYMQIFK [RPL21_Y30_R32Q_YF]	1.54
SHGKQYRVPSD [HHIPL2_Y395_R394Q]	0.353
NLTLKYPIEHG [ACTA1_Y71_I66N]	0.417
DSLASYLDKVR [KRT10_Y160_R156S]	0.46
HHTNEYEFDEL [TGM1_Y134_D132N_YF]	0.939
NMHSTYAKLAA [SEC22B_Y193]	0.375
FFRKFYNKSED [RYR1_Y4864]	0.388
RENGPYYASYP [GDAP2_Y487_T489A]	7.26
SSLEDYVRETN [GIMAP6_Y176_G171S]	0.44
FSCLPYRRLAF [SLC52A2_Y305_G306R_YF]	0.902
REGDKYVSHGA [ASS1_Y113_A111D]	0.643

###

target: Hck (UniProt P08631); assay: phosphorylation enrichment, bacterial display (enrichment ratio); higher = better substrate or ligand; peptides without Tyr show the background
Sequence (P08631 whole entry, looked up): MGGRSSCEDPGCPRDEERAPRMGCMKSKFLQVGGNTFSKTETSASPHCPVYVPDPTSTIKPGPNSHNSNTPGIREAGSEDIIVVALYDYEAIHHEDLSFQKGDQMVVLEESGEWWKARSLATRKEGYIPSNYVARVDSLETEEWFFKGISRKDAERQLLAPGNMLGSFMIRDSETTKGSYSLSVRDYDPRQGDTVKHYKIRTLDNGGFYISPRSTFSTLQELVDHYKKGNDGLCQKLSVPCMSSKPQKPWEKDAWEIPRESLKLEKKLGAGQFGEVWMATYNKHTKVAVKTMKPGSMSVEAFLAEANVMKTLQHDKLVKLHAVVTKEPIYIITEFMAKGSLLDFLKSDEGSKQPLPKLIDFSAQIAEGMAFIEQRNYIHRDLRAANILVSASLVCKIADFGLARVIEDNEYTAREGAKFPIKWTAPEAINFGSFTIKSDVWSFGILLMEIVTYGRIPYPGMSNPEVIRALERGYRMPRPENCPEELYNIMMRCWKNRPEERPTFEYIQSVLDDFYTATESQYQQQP
assayReadout: phosphorylation enrichment

residueCodes	numericResult
KYWREYILSLE [GPC3_Y299]	0.461
NYADPYRQLQY [CTNND2_Y503]	0.615
ATGGFYSYGGG [KRT24_Y120]	1.8
LRVGFYESDVM [A2M_Y708]	0.996
WRPFGYPRCRR [BCS1L_Y181_R184C]	0.454
LDAFIYDAALL [GRIN2A_Y730_V734L]	7.57
KPAFSYTSSST [SIM1_Y356]	0.446
FMGVEYSSCDT [EPHA3_Y937_T933M]	0.61
HLATEYVFSDF [PANX1_Y10_Q5H]	0.661
LVMFIYDIFGM [SCN1A_Y1684_A1685D]	5.56
ADCRYYAFPQM [GAMT_Y223]	3.1
RCFVFYFSFLL [PTEN_Y177_R173C_YF]	0.426
VECHPYFTQPK [AKR1D1_Y199]	0.515
EHFSYYGMKAV [SLC15A2_Y61_R57H]	3.42
